Counter-ions that a name gives are not always drawn.
Heads up, these molecules all have IC50 values measured for hJAK2 (Homo sapiens (Human), UniProt O60674).
Report the figure in nM without appending any unit label.

Form field - read-out: IC50; system: hJAK2 (Homo sapiens (Human), UniProt O60674); submitted item: N#Cc1cc(-c2ncnc(Nc3ccc(N4CCN(C5COC5)CC4)cc3)n2)ccc1O[C@H]1CCN(C(=O)c2cnc[nH]2)CC1(F)F 104

Form field - read-out: IC50; system: hJAK2 (Homo sapiens (Human), UniProt O60674); submitted item: C[C@H](O)C(=O)N1CC[C@@H](Oc2ccc(-c3ncnc(Nc4ccc(N5CCN(C6COC6)CC5)cc4)n3)cc2C#N)[C@H](F)C1 669

Form field - read-out: IC50; system: hJAK2 (Homo sapiens (Human), UniProt O60674); submitted item: CC1(C)CN(C(=O)CO)C[C@H](F)[C@@H]1Oc1ccc(-c2ncnc(Nc3ccc(N4CCN(C5COC5)CC4)cc3)n2)cc1C#N (single isomer, unassigned) 49

Form field - read-out: IC50; system: hJAK2 (Homo sapiens (Human), UniProt O60674); submitted item: N#Cc1cc(-c2ncnc(Nc3ccc(N4CCNCC4)cc3)n2)ccc1OC1CCOCC1 [Example 18, trifluoroacetic acid salt] 271

Form field - read-out: IC50; system: hJAK2 (Homo sapiens (Human), UniProt O60674); submitted item: N#Cc1cc(-c2ncnc(Nc3ccc(N4CCN(C5COC5)CC4)c(F)c3)n2)ccc1O[C@H]1CCN(C(=O)CO)C[C@H]1F 199

Form field - read-out: IC50; system: hJAK2 (Homo sapiens (Human), UniProt O60674); submitted item: C[C@H]1CN(C2COC2)CCN1c1ccc(Nc2ncnc(-c3ccc(O[C@H]4CCN(C(=O)CC#N)C[C@H]4F)c(C#N)c3)n2)cc1 127

Form field - read-out: IC50; system: hJAK2 (Homo sapiens (Human), UniProt O60674); submitted item: N#Cc1cc(-c2ncnc(Nc3ccc(N4CCN(C5COC5)CC4)cc3)n2)ccc1O[C@H]1CCN(C(=O)C2CCNC2=O)C[C@H]1F (some centres unmarked) 799

Form field - read-out: IC50; system: hJAK2 (Homo sapiens (Human), UniProt O60674); submitted item: N#Cc1cc(-c2ncnc(Nc3ccc(N4CCN(C5COC5)CC4)cc3)n2)ccc1O[C@H]1CCCN(C(=O)CO)C1 394

Form field - read-out: IC50; system: hJAK2 (Homo sapiens (Human), UniProt O60674); submitted item: CC1(COc2ccc(-c3ncnc(Nc4ccc(N5CCN(C6COC6)CC5)cc4)n3)cc2C#N)COC1 178

---

Measured Target: TBK1 (Homo sapiens (Human), UniProt Q9UHD2)
Sequence (Q9UHD2 whole entry): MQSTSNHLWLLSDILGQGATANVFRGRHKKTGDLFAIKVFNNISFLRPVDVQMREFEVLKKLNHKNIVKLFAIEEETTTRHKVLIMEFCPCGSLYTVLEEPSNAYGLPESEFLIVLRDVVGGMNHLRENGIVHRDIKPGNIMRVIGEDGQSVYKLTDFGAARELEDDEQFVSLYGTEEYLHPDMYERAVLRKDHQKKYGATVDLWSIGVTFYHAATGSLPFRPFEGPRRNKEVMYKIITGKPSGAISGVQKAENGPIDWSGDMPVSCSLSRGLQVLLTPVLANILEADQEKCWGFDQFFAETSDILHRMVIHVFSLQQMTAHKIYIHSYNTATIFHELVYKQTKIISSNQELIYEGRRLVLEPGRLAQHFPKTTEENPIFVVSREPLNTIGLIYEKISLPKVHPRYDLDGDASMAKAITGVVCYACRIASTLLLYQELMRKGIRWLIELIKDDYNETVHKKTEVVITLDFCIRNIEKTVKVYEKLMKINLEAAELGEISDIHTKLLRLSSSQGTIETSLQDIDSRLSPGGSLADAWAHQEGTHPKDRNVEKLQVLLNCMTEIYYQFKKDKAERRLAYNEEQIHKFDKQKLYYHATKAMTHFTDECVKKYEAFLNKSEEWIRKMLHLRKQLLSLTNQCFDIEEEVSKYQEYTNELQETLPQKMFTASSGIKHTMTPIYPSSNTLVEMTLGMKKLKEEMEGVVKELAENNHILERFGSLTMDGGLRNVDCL
Protocol Text: TBK1 TR-FRET enzymatic assay;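 further: phosphorylation of a biotinylated Ser/Thr peptide by purified full-length recombinant TBK1, read by TR-FRET after 240 min at 25 °C, IC50 is the geometric mean of at least four runs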
Consider the following compounds; for each one, report its IC50.
Report the figure in nM without appending any unit label.

Fill blank: measured IC50 of the compound N#Cc1cc(-c2ncnc(Nc3ccc(N4CCN(C5COC5)CC4)cc3)n2)ccc1N1CCC2(CCO2)C1 (stereo not shown) is ____. 38

Fill blank: measured IC50 of the compound Cc1nnc(C(=O)N2CC[C@H](Oc3ccc(-c4ncnc(Nc5ccc(C6CCN(C)CC6)c(C)c5)n4)cc3C#N)[C@H](F)C2)[nH]1 is ____. 3

Fill blank: measured IC50 of the compound C[C@H](O)C(=O)N1CC[C@H](Oc2ccc(-c3ncnc(Nc4ccc(N5CCN(C6COC6)[C@@H](C)C5)cc4)n3)cc2C#N)C(F)(F)C1 is ____. 2

Fill blank: measured IC50 of the compound N#Cc1cc(-c2ncnc(Nc3ccc(N4CCN(C5COC5)CC4)cc3)n2)ccc1O[C@@H]1CCN(C(=O)C2COC2)C1 is ____. 45

Fill blank: measured IC50 of the compound C[C@@H]1CN(C(=O)CO)CC(F)(F)[C@H]1Oc1ccc(-c2ncnc(Nc3ccc(N4CCN(C5COC5)CC4)cc3)n2)cc1C#N (relative stereo) is ____. 5

Fill blank: measured IC50 of the compound COc1cc(Nc2ncnc(-c3ccc(O[C@H]4CCN(C(=O)CCO)C[C@H]4F)c(C#N)c3)n2)ccc1N1CCN(C2COC2)CC1 is ____. 3

Fill blank: measured IC50 of the compound CCOc1ccc(Nc2ncnc(-c3ccc(O[C@H]4CCN(C(=O)[C@@H]5CCC(=O)N5)C[C@H]4F)c(C#N)c3)n2)cn1 is ____. 7

Fill blank: measured IC50 of the compound C[C@H]1CN(C2COC2)CCN1c1ccc(Nc2ncnc(-c3ccc(O[C@H]4CCN(C(=O)c5ccn[nH]5)C[C@H]4F)c(C#N)c3)n2)cc1 is ____. 2

Fill blank: measured IC50 of the compound COc1cc(Nc2ncnc(-c3ccc(O[C@@H]4CCN(C(=O)CO)C4)c(C#N)c3)n2)ccc1N1CCN(C2COC2)CC1 is ____. 3

Fill blank: measured IC50 of the compound Cc1noc(C(=O)N2CC[C@H](Oc3ccc(-c4ncnc(Nc5ccc(N6CCN(C7COC7)CC6)cc5)n4)cc3C#N)[C@H](F)C2)n1 is ____. 3

Fill blank: measured IC50 of the compound Cc1nnc(C(=O)N2CC[C@H](Oc3ccc(-c4ncnc(Nc5cnn(C(C)(C)C)c5)n4)cc3C#N)[C@H](F)C2)[nH]1 is ____. 4

Fill blank: measured IC50 of the compound N#Cc1cc(-c2ncnc(Nc3ccc(N4CCN(C5COC5)CC4)c(F)c3)n2)ccc1OC1CCOCC1 is ____. 2

Fill blank: measured IC50 of the compound Cc1n[nH]c(C(=O)N2CC[C@H](Oc3ccc(-c4ncnc(Nc5ccc(N6CCN(C7COC7)CC6)cc5)n4)cc3C#N)C(F)(F)C2)n1 is ____. 3

Origin of values: patent US10040781B2
